Experiment: in vitro
Format: cell-based
Condition Description: human
Test Readout: hemolysis at 45 min, 200 µM (%)
Quick note: give the figure in %, leave out the unit.

Some molecules with recorded hemolysis at 45 min, 200 µM:
CCCCCCCC(=O)NC(CCCN)CC(=O)NCCCN(CCCNC(=O)CC(CCCN)NC(=O)CCCCCCC)CC(=O)NC(CCCN)CC(N)=O (stereo not drawn)	2.26
CCCCCCCC(=O)NC(CCCCN)CC(=O)NCCCN(CCCNC(=O)CC(CCCCN)NC(=O)CCCCCCC)CC(=O)NC(CCCCN)CC(N)=O (stereo not drawn)	3.21

Would you kindly share the measured hemolysis at 45 min, 200 µM for CCCCCCCC(=O)NC(CCCNC(=N)N)CC(=O)NCCCN(CCCNC(=O)CC(CCCNC(=N)N)NC(=O)CCCCCCC)CC(=O)NC(CCCNC(=N)N)CC(N)=O (stereo not drawn) ?
4.59
